Reference for the values: patent US5935597A

# ASSAY TEXT: Example 8 pilot study: peak plasma DMF level (GC/MS)
# Assay type: in vivo
# MEASUREMENT CONTEXT: human, topical or ocular, 7120 mg, Patient 2, one patch per week, 8 hours, average weekly dose 7.12 g
# Protocol: A pilot study was conducted to evaluate the efficacy of transdermal DMF in the treatment of patients infected with HIV. Informed consent was obtained from each patient. Seropositive status was verified by Western blot using a commercial kit for detecting antibodies to p24 (Abbott Diagnostics) and the presence of HIV-1 was documented by quantitative PCR using a commercial kit (Roche Amplicor). […]
MEASURED METRIC: Cmax (µg/mL)

molecule="CN(C)C=O [DMF, N,N'-dimethylformamide]" endpoint_unit=µg/mL numeric_value=125

---

# ASSAY TEXT: Example 7: plasma/blood DMF level in HIV-1 patients treated with DMF dermal patches
# Format: in vivo
# MEASUREMENT CONTEXT: human, blood, topical or ocular, 14000 mg
MEASURED METRIC: concentration at 12 h (µg/mL)

compound="CN(C)C=O [DMF, N,N'-dimethylformamide]" endpoint_unit=µg/mL numeric_value=100

---

# ASSAY TEXT: Example 8 pilot study: peak plasma DMF level (GC/MS)
# Format: in vivo
# MEASUREMENT CONTEXT: human, topical or ocular, 8970 mg, Patient 1, two patches once a week, 8 hours, average weekly dose 8.97 g
MEASURED METRIC: Cmax (µg/mL)

molecule="CN(C)C=O [DMF, N,N'-dimethylformamide]" numeric_value=121

---

# ASSAY TEXT: Example 8 pilot study: peak plasma DMF level (GC/MS)
# Format: in vivo
# MEASUREMENT CONTEXT: human, topical or ocular, 3750 mg, Patient 6, two patches once weekly, 6 hours, average weekly dose 3.75 g
MEASURED METRIC: Cmax (µg/mL)

molecule="CN(C)C=O [DMF, N,N'-dimethylformamide]" numeric_value=67
